system: SNB-75 CNS; assay: NCI-60 one-dose screen, 48 h; settings: 10 µM unless noted
The panel holds about 83,000 compounds, 20% with a hit somewhere; the sample as a whole holds those more often. Calls of active or inactive are those of the source. Rule for the calls: active = growth percent below 10; inactive = the rest.
Give one outcome, nothing more. List: active, inactive

CCCCN(CC)CCCCCCCCCCN1CCCc2cc(OC)ccc21    inactive
CCCCOc1ccc(NC(=O)n2nc(NC(C)=O)c3cc(NC(C)=O)ccc32)cc1    inactive
COc1ccc(OCC(=O)Nc2ccc(-c3nc4ccccc4s3)cc2C)cc1    inactive
CCOc1ccc(Nc2nc(-c3c(C)nc4ncccn34)cs2)cc1    inactive

Outcome logged for O=C(O)c1c([N+](=O)[O-])cnc2ccccc12 in this assay: inactive

Assay outcome for COc1cc(-c2c3sc(=O)[nH]c3nc3c2c(=O)[nH]n3C(C)C)cc2c1OCO2 : what was it? inactive

So what was the verdict on CN(C)C(=O)c1cc2cnc(Nc3ccc(-c4csc5c(=O)cc(N6CCNCC6)oc45)cc3)nc2n1C1CCCC1 in this test? inactive

Please indicate how the test categorized O=C1CC(c2nc3ccccc3s2)CN1C1CCCCC1 (configuration not stated) . inactive

Which outcome was assigned to CNCc1cccc2c1OCCOCCOCCN(C)S(=O)(=O)c1ccc(cc1)-c1cnc(N)c(n1)C(=O)N2 in this test? inactive

For CNC(=S)N/N=C/CSC/C=N/NC(=S)NC , what call appears in the results of this test? inactive

Hello, I am checking results. What call was entered for CCOC(=O)CC(=O)c1c(C)cc(C)cc1C ? inactive

Which outcome did this test record for the molecule CCNS(=O)(=O)c1ncnc2nc[nH]c12 ? inactive

How did this test come out for Clc1nc(Cl)c2c3c(sc2n1)CCCC3 ? inactive

What did the test return for COc1nc2c(cc1S(=O)(=O)c1ccccc1)CCc1c-2cnn1Cc1ccccc1 ? inactive

Recorded call for COc1nc2c(cc1S(=O)(=O)c1ccccc1)CCc1c-2cnn1-c1ccc(Cl)cc1 ? inactive

Which result was noted for this molecule in the test: N#Cc1ccc(NC(=O)Nc2ccc(Cc3ccc(NC(=O)Nc4ccc(C#N)cc4)cc3)cc2)cc1 inactive

Which outcome was assigned to CN1CCCCC1CCN1c2ccccc2Sc2ccc(Br)cc21 (configuration not stated) in this test? active

Called result for Nc1ccc(Nc2nccc(-c3ccc4ccccc4c3)n2)cc1 inactive

Answer briefly: the call reported for COC(=S)SCN(CSC(=S)OC)c1ccc(Cl)cc1 in this assay. inactive

Call for entry CC(=O)Oc1ccc(Nc2c3ccccc3nc3ccccc23)cc1 : active

Fill in: this test's call for Cc1cc2cc3cc(C)c(N(C)C)cc3nc2cc1N(C)C is ___ inactive

Could you please tell me the result logged for C=C1CC[C@@H]2[C@](C)(COC(C)=O)[C@H](OC(C)=O)CC[C@@]2(C)[C@@H]1CC(Nc1ccc(S(=O)(=O)Nc2ccc(Cl)nn2)cc1)C1=CCOC1=O (some centres not stated) in this assay? inactive

----------
system: NCI-H23 lung; assay: NCI-60 one-dose screen, 48 h; details: 10 µM unless noted
About 83,000 compounds went through this panel and 20% of them were active in at least one assay; those are over-represented in the sample as a whole. Calls of active or inactive are those of the source. How the source made its calls: active means growth percent below 10; inactive means the rest.
Please reply with one of these outcomes: active, inactive

Example entries and their recorded answers appear below.
CC(C)(C)n1cc(-c2ccnc(NCCNS(=O)(=O)c3ccccc3)c2)c(-c2cccc(O)c2)n1    inactive
C=C1CCC2C3(C)COC(C)(C)OC3CCC2(C)C1C/C=C1/C(=O)OCC1OC(C)=O (stereo not given)    inactive
O=C1c2cccnc2C(=O)c2c1c(C(=O)OCCN1CCCCC1)c1ccccn21    active
CC(=O)OCC(=O)C1CCC=CC1OC(C)=O (stereo not given)    inactive
Cc1ccc2c(c1)C(=O)/C(=C/c1ccc(OCC(=O)c3ccccc3)cc1)O2    inactive

I would be grateful if you could indicate the recorded call for O=C(Nc1ccc(F)cc1)Nc1ccc(CCO)cc1 . inactive

Call for entry CNC(=S)N/N=C/CSC/C=N/NC(=S)NC : inactive

Called result for Cc1cc(=O)oc2cc(Oc3nc(-c4ccc(Cl)cc4)cn4c(-c5ccc(Cl)cc5)cnc34)ccc12 inactive

Could you check what this test reported for COc1ccc(/C=C2\N=C3Sc4cc(Cl)ccc4C(=O)N3C2=O)cc1 ? inactive

Tell me the assay call for CCOc1ccc(Nc2nc(-c3c(C)nc4ncccn34)cs2)cc1 please. inactive
